Molecular target: DNA polymerase kappa (Homo sapiens) (UniProt Q9UBT6)
Sequence (Q9UBT6 whole entry, the tested form may be a part): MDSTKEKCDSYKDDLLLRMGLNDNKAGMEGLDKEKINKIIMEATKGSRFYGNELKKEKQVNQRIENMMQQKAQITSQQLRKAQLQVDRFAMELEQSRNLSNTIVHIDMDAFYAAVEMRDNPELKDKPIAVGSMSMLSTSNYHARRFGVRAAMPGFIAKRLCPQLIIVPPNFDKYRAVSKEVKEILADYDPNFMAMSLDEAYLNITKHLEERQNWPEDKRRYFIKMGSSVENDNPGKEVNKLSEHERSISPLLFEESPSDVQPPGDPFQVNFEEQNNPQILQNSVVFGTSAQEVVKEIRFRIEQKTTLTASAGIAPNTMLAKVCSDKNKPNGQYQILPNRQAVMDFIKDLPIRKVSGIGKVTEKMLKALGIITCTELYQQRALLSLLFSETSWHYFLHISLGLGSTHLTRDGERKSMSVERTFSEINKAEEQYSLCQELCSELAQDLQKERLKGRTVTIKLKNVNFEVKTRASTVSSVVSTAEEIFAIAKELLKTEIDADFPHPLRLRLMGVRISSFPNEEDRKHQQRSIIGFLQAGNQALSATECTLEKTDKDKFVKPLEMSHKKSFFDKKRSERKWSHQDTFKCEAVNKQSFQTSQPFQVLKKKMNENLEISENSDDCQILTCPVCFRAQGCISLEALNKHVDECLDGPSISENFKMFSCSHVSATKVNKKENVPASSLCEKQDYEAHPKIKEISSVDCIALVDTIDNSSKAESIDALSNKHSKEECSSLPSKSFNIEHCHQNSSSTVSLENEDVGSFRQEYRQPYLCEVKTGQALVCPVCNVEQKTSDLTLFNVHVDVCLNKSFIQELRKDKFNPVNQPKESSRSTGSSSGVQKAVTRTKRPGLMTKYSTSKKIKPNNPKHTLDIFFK
Assay: Inhibition of C-terminal His6-tagged human DNA polymerase kappa (amino acids 1 to 560) using poly(dA)/oligo(dT)18 (A/T = 2/1) and dTTP as the DNA template-primer and nucleotide substrate at 10 uM after 60 mins
The source made the active and inactive calls. No cut-off for these calls is given here.
Readout type: inhibition

Solved cases below.
>>> recorded_result("CCC(=O)O")
"inactive"
>>> recorded_result("CCCCCC(=O)O [HEXANOATE]")
"inactive"
>>> recorded_result("CCCCCCCCCCCC(=O)Oc1cccc2c1C(=O)C=CC2=O")
"Active"
>>> recorded_result("CCCCCCCCCCCC(=O)O [DODECANOATE]")
"inactive"
>>> recorded_result("CCCCCCCC/C=C\\CCCCCCCC(=O)Oc1cccc2c1C(=O)C=CC2=O")
"Active"

Req: Fill in the blank: the reported inhibition of "O=C1C=CC(=O)c2c(O)cccc21" is ____.
Resp: Active

Req: Find the recorded inhibition belonging to "CCCCC/C=C\C/C=C\CCCCCCCC(=O)O" and report it.
Resp: inactive

---

Exercise: state measured pIC50 for each of the compounds provided.
Field pIC50 (float): negative decimal logarithm of the concentration in molar.

Req: Lookup: pIC50 / DNA polymerase kappa (Homo sapiens) / "CCCCCCCC/C=C\CCCCCCCC(=O)Oc1cccc2c1C(=O)C=CC2=O"
Resp: 5.09

Req: # returns recorded pIC50 (system: DNA polymerase kappa (Homo sapiens)) for "CCCCCCCCCCCC(=O)Oc1cccc2c1C(=O)C=CC2=O"
Resp: 5.17

---

Experiment: Inhibition of rice DNA polymerase lambda using poly(dA)/oligo(dT)18 (A/T = 2/1) and dTTP as the DNA template-primer and nucleotide substrate after 60 mins
Parameters: species or system Oryza sativa
pIC50: −log10 of the molar value.
Readout type: pIC50

Req: Quick one: pIC50 of "CCCCCCCC/C=C\CCCCCCCC(=O)Oc1cccc2c1C(=O)C=CC2=O" ?
Resp: < 3.70

Req: # lookup: pIC50 of "CCCCCCCCCCCC(=O)Oc1cccc2c1C(=O)C=CC2=O"
Resp: < 4.00

---

Organism: Homo sapiens
Experiment: Inhibition of histidine-tagged human DNA polymerase gamma using poly(dA)/oligo(dT)18 (A/T = 2/1) and dTTP as the DNA template-primer and nucleotide substrate at 10 uM after 60 mins
Calls of active or inactive are those of the source. The rule behind the calls is not given here.
The categories you may choose from are Y (active), N (inactive)

Req: Hi, sorry to bother you, what did the test record for "CC/C=C\C/C=C\C/C=C\C/C=C\C/C=C\C/C=C\CCC(=O)Oc1cccc2c1C(=O)C=CC2=O" ?
Resp: Y

Req: In this assay, the call recorded for "CC/C=C\C/C=C\C/C=C\C/C=C\C/C=C\C/C=C\CCC(=O)O" was what?
Resp: N

Req: Name the outcome recorded for "CC(=O)Oc1cccc2c1C(=O)C=CC2=O" in the assay.
Resp: Y

Req: Identify the outcome logged in this assay for the compound shown: "CCCCC/C=C\C/C=C\CCCCCCCC(=O)O"
Resp: N

Req: Hi, sorry to bother you, what did the test record for CCCCCC(=O)O [HEXANOATE] ?
Resp: N

Req: // return assay outcome for "CC/C=C\C/C=C\C/C=C\CCCCCCCC(=O)Oc1cccc2c1C(=O)C=CC2=O"
Resp: Y

Req: What classification did "CCC(=O)O" end up with in this test?
Resp: N

Req: Given CCCCCCCCCCCC(=O)O [DODECANOATE] , state the outcome it received in this test.
Resp: N

Req: Please share the test call associated with "CCCCCCCCCCCCCCCCCC(=O)O" .
Resp: N

Req: Just curious, what result did "CCC(=O)Oc1cccc2c1C(=O)C=CC2=O" get here?
Resp: Y

Req: What outcome does the record of this test show for "O=C1C=CC(=O)c2c(O)cccc21" ?
Resp: Y
